Target: CB2 receptor (Homo sapiens, UniProt P34972)
Construct: expressed in transfected cells
Sequence (P34972 whole entry): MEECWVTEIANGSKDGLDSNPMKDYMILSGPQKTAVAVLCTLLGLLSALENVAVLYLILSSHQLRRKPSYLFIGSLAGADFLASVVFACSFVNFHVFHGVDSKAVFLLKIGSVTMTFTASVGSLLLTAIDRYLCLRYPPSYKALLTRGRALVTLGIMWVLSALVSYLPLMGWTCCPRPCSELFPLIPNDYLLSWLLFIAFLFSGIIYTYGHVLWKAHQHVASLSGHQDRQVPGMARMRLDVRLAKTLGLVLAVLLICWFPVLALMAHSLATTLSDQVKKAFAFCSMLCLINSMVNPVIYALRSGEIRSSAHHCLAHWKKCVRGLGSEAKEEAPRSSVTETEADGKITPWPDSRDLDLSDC
Assay: Calcium mobilization assay, antagonist mode (CP55940 challenge), CHO expressing CB2
Format: cell-based
Settings: CB2 IC50, antagonist activity, CHO expressing CB2, three independent assays, mean ± SEM
Method: Chinese hamster ovarian (CHO) cells collected from the American Type Culture Collection were maintained in Ham’s F-12K (Kaighn’s) supplemented with 100 mg/L streptomycin, 100 mg/L penicillin, and 10% fetal bovine serum (FBS) in a humidified atmosphere of 5% CO2 at 37 °C. […] A solitary colony was obtained, propagated, and assessed using a calcium mobilization assay to verify the function and expression of the transfected genes. […]
Below, each of the compounds is paired with its reported IC50 value.
Record the value in µM, omitting the unit from your answer.

Data request: What value of measured IC50 is listed for COc1ccc(C(=O)c2c(C)n(CCN3CCOCC3)c3cc(I)ccc23)cc1 [AM630, reference compound] ?
Data returned: 0.34

# evaluate next
Data request: Give its IC50 value. Item: `CCCS(=O)(=O)Oc1cc(C=C2SC(=O)N(CC(C)C)C2=O)ccc1OC`
Data returned: 2.99

====

Target: CB2 receptor (Homo sapiens)
Construct: expressed in transfected cells
Assay: Calcium mobilization assay, agonist mode, CHO expressing CB2 and Gα16
Format: cell-based
Details: agonist activity, CHO expressing CB2, three independent assays, mean ± SEM; read-out: CB2 EC50
Protocol: Chinese hamster ovarian (CHO) cells collected from the American Type Culture Collection were maintained in Ham’s F-12K (Kaighn’s) supplemented with 100 mg/L streptomycin, 100 mg/L penicillin, and 10% fetal bovine serum (FBS) in a humidified atmosphere of 5% CO2 at 37 °C. […] A solitary colony was obtained, propagated, and assessed using a calcium mobilization assay to verify the function and expression of the transfected genes. […]
MEASUREMENT LABEL: EC50 (nM)
# value in nM; strip the unit string

Data request: Field request: EC50 | item: `CC(C)CN1C(=O)SC(=Cc2ccccc2OCc2ccccc2F)C1=O`
Data returned: 1600

Data request: Another compound to check: `COc1ccc(C=C2SC(=O)N(C(C)C)C2=O)cc1OC(=O)C(C)(C)CCl`
Data returned: 3380

New cases:
Data request: Record request: EC50 value, item `COc1ccc(C=C2SC(=O)N(C(C)C)C2=O)cc1OC(=O)c1cccc(Br)c1`
Data returned: 2960

====

target: CB2 receptor (Homo sapiens, UniProt P34972); construct: expressed in transfected cells; assay: Calcium mobilization assay, agonist mode, CHO expressing CB2 and Gα16; format: cell-based; details: agonist activity, CHO expressing CB2, three independent assays, mean ± SEM; read-out: CB2 EC50
MEASUREMENT LABEL: EC50

Data request: Record `CCCCCCCC(=O)Oc1ccccc1/C=C1\SC(=O)N(C(C)C)C1=O` : what is its EC50 with CB2 receptor (Homo sapiens, UniProt P34972)?
Data returned: > 10 µM

Data request: Next up: `CCCCN1C(=O)SC(=Cc2ccccc2OCc2ccccc2C#N)C1=O`
Data returned: > 10 µM

Data request: Please answer likewise for `CC(C)N1C(=O)SC(=Cc2cccc(OCc3ccccc3C#N)c2)C1=O`
Data returned: > 10 µM

Data request: And `CC(C)CN1C(=O)SC(=Cc2ccccc2OC(=O)N2CCOCC2)C1=O` ?
Data returned: 1.58 µM

More entries:
Data request: Notebook: pull reported EC50 for CB2 receptor (Homo sapiens, UniProt P34972), entry `COc1cc(COc2ccccc2C=C2SC(=O)N(CC(C)C)C2=O)cc(OC)c1`
Data returned: > 10 µM

====

target: CB2 receptor (Homo sapiens); construct: expressed in transfected cells; experiment: Calcium mobilization assay, agonist mode, CHO expressing CB2 and Gα16; format: cell-based; details: CB2 agonist(μM) replicate3, single independent experiment, replicate 3
MEASUREMENT LABEL: EC50 (µM)
State the answer as a number, implicitly in µM.

Data request: Look up EC50 for this molecule: CC(C)N1C(=O)SC(=Cc2ccccc2OCCN2CCOCC2)C1=O [Compound 8]
Data returned: 0.022

====

target: CB2 receptor (Homo sapiens, UniProt P34972); construct: expressed in transfected cells; test: Calcium mobilization assay, agonist mode, CHO expressing CB2 and Gα16; format: cell-based; details: agonist mode
MEASUREMENT LABEL: SI, selectivity index for the CB2, SI = EC50(CB1)/EC50(CB2)

Data request: Using the record for `N#Cc1ccccc1COc1ccccc1C=C1SC(=O)N(C2CCCC2)C1=O` , report its SI, selectivity index for the CB2, SI = EC50(CB1)/EC50(CB2).
Data returned: >4

Data request: Then this molecule: `COc1ccc(/C=C2\SC(=O)N(C(C)C)C2=O)cc1OC(=O)C12CC3CC(CC(C3)C1)C2`
Data returned: >12

Data request: Check `CC(C)N1C(=O)S/C(=C\c2ccccc2OC(=O)c2ccccc2F)C1=O` too.
Data returned: >2

Data request: Also check `CC(C)CN1C(=O)SC(=Cc2ccccc2OC(=O)N2CCOCC2)C1=O`
Data returned: >6

Data request: Thanks! And `CC(C)N1C(=O)SC(=Cc2ccccc2OCc2ccccc2C#N)C1=O` ?
Data returned: >3

Data request: Moving on to `CC(C)N1C(=O)SC(=Cc2ccccc2OC(=O)N2CCOCC2)C1=O`
Data returned: >15

Data request: For `CC(C)CN1C(=O)SC(=Cc2ccccc2OC(=O)c2ccccc2F)C1=O` then?
Data returned: >5

Data request: Same question, `CC(C)N1C(=O)SC(=Cc2ccccc2OC(=O)C2CCCCCC2)C1=O` this time
Data returned: >12

Data request: Ok, now `CC(C)CN1C(=O)SC(=Cc2ccccc2OCc2ccccc2F)C1=O`
Data returned: >6

====

Reported IC50 values are given for each entry in this list.
target: CB2 receptor (Homo sapiens, UniProt P34972); construct: expressed in transfected cells; test: Calcium mobilization assay, antagonist mode (CP55940 challenge), CHO expressing CB2; format: cell-based; details: CB2 antagonist(μM) replicate 1, single independent experiment, replicate 1
Return type: number; implicit unit µM.

Data request: # get_value(readout='IC50', item= COc1ccc(C(=O)c2c(C)n(CCN3CCOCC3)c3cc(I)ccc23)cc1 [AM630, reference compound] )
Data returned: 0.153

Kindly consider the entry below.
Data request: Could you share which IC50 value was measured for `CCCS(=O)(=O)Oc1cc(C=C2SC(=O)N(CC(C)C)C2=O)ccc1OC` ?
Data returned: 2.64

====

target: CB2 receptor (Homo sapiens, UniProt P34972); construct: expressed in transfected cells; experiment: Calcium mobilization assay, agonist mode, CHO expressing CB2 and Gα16; assay type: cell-based; details: single independent experiment, replicate 1; read-out: CB2 agonist(μM) replicate 1
Entries and their EC50
Give just the number in µM; leave the unit off.

Data request: Sample COc1ccc(C=C2SC(=O)N(C(C)C)C2=O)cc1OC(=O)C(C)(C)CCl [Compound 31] — what was its EC50?
Data returned: 0.814

Next:
Data request: If you can, please state the reported EC50 value of CC(C)CN1C(=O)S/C(=C\c2ccccc2OC(=O)C(C)(C)CCl)C1=O [Compound 16] .
Data returned: 0.949

Data request: // next record CC(C)CN1C(=O)SC(=Cc2ccccc2OCc2ccccc2C#N)C1=O [Compound 2]
Data returned: 0.43

Data request: Try this compound next: CC(C)CN1C(=O)SC(=Cc2ccccc2OC(=O)N2CCOCC2)C1=O [Compound 15]
Data returned: 0.486

Data request: Next: CC(C)CN1C(=O)SC(=Cc2ccccc2OC(=O)c2ccccc2F)C1=O [Compound 13]
Data returned: 1.66

Data request: Would you mind doing CC(C)N1C(=O)SC(=Cc2ccccc2OC(=O)C2CC2)C1=O [Compound 22] as well?
Data returned: 2.19

Data request: Now give it for CC(C)CN1C(=O)SC(=Cc2ccccc2OCc2ccccc2F)C1=O [Compound 10] too.
Data returned: 1.78

Data request: Next up: COc1ccc(/C=C2\SC(=O)N(C(C)C)C2=O)cc1OC(=O)C12CC3CC(CC(C3)C1)C2 [Compound 32]
Data returned: 0.093

Data request: And the next one, COc1ccc(C=C2SC(=O)N(C(C)C)C2=O)cc1OC(=O)c1cccc(Br)c1 [Compound 28] ?
Data returned: 0.637

====

molecular target: CB1 receptor (Homo sapiens, UniProt P21554); assay: Calcium mobilization assay, agonist mode, CHO expressing CB1 and Gα16; assay type: cell-based; details: CB1 agonist(μM) replicate 1, single independent experiment, replicate 1
Sequence (P21554 whole entry): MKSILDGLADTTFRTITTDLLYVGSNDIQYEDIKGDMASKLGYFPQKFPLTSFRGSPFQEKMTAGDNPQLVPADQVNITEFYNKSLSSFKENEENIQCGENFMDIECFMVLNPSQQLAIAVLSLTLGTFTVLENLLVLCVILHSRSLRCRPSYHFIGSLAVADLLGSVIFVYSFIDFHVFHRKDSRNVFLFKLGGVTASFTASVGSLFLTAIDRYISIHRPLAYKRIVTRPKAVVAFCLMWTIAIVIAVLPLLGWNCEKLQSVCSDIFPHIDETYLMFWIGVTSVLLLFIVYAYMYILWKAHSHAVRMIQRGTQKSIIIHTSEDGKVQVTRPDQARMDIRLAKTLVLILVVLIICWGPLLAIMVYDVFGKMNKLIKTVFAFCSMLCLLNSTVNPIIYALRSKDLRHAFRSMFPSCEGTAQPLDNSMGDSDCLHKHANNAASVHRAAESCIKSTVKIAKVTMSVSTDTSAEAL
MEASUREMENT LABEL: EC50 (µM)
Unit µM implied. Number only.

Data request: Form entry - test system: CB1 receptor (Homo sapiens, UniProt P21554); read-out: EC50; compound: CC(C)N1C(=O)SC(=Cc2ccccc2OCCN2CCOCC2)C1=O [Compound 8]
Data returned: 0.455

====

biological target: CB2 receptor (Homo sapiens, UniProt P34972); construct: expressed in transfected cells; test: Calcium mobilization assay, agonist mode, CHO expressing CB2 and Gα16; assay type: cell-based; conditions: agonist activity, CHO expressing CB2, three independent assays, mean ± SEM; read-out: CB2 EC50
The following compounds are listed with their measured EC50 values.

Solved cases (3 shown):
Data request: Request the reported EC50 associated with `N#Cc1ccccc1COc1cccc(C=C2SC(=O)N(C3CCCC3)C2=O)c1`
Data returned: > 10 µM

Data request: Thanks! And `O=C1SC(=Cc2ccccc2OCc2ccccc2F)C(=O)N1C1CCCC1` ?
Data returned: > 10 µM

Data request: Please do the same for `COc1ccc(/C=C2\SC(=O)N(C(C)C)C2=O)cc1OC(=O)c1ccc(CCl)cc1` as well.
Data returned: > 10 µM

Here's the next entry for you.
Data request: State the recorded EC50 for this entry: `CC(C)CN1C(=O)S/C(=C\c2ccccc2OC(=O)C(C)(C)CCl)C1=O`
Data returned: 1.51 µM
